Molecular target: CYP3A4 (Homo sapiens, UniProt P08684)
Construct: The primary incubation mixture contains HLM, potassium phosphate buffer; from tissue; host or cells: human liver microsomes (HLM)
Sequence (P08684 whole entry): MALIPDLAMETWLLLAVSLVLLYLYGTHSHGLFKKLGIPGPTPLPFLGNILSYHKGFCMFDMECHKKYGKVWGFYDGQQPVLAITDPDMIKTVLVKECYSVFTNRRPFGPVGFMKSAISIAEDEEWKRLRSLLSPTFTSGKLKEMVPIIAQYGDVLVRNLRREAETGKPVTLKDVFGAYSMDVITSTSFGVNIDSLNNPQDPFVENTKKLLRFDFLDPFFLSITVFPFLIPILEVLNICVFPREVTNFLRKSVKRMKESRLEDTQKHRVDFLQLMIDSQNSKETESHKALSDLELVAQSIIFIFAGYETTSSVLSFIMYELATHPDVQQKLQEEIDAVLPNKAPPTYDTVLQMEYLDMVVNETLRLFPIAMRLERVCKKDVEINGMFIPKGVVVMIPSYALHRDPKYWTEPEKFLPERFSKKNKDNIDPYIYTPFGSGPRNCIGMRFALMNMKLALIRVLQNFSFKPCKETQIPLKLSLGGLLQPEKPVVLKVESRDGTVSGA
Test: Inhibition of CYP3A4-mediated oxidation of clinical drugs (tamoxifen, gefitinib, ticagrelor) in HLM, LC-MS/MS
Assay type: in vitro ADME
Conditions: gefitinib 10 μM, defluorination, 30 min, ± SD, read-out: IC50 toward gefitinib
Experimental Endpoint: pIC50
The scale used: pIC50 is minus the common logarithm of the concentration in molar units.

Example cases with answers are listed next.
>  <Smiles Input>
O=c1cc(-c2ccc(O)c(-c3c(O)cc(O)c4c(=O)cc(-c5ccc(O)cc5)oc34)c2)oc2cc(O)cc(O)c12

>  <Experimental Endpoint>
pIC50

>  <Assay Result>
5.28

$$$$
>  <Smiles Input>
COc1ccc(-c2cc(=O)c3c(O)cc(O)c(-c4cc(-c5cc(=O)c6c(O)cc(O)cc6o5)ccc4OC)c3o2)cc1

>  <Experimental Endpoint>
pIC50

>  <Assay Result>
4.88

$$$$
>  <Smiles Input>
COc1cc(O)c2c(=O)cc(-c3ccc(OC)c(-c4c(O)cc(O)c5c(=O)cc(-c6ccc(O)cc6)oc45)c3)oc2c1

>  <Experimental Endpoint>
pIC50

>  <Assay Result>
6.06

$$$$

Note: attention shifts to another entry.
Returns the measured pIC50 for the input compound. Input: COc1ccc(-c2cc(=O)c3c(O)cc(O)cc3o2)cc1-c1c(O)cc(O)c2c(=O)cc(-c3ccc(O)cc3)oc12
5.76
